Numbers sourced from ChEMBL document CHEMBL1201862.

System: OVCAR-4
Test: NCI tumour cell line growth inhibition, 48 h
Calls of active or inactive are those of the source. Rule as the data show it: active = GI50 up to about 1.1 µM and inactive = higher.
Give your call using only these classes: 1 (active), -1 (inactive)

IN: Which outcome did this test record for the molecule COCCOC(=O)c1c(C)[n+]([O-])c2cc(Cl)c(Cl)cc2[n+]1[O-] ?
OUT: -1

IN: O=C(O)c1ccccc1CC1Cc2ccccc2C1 , same question.
OUT: -1

IN: Now the same for CN(Cc1cnc2nc(N)nc(N)c2n1)c1ccc(C(=O)NC(CCC(=O)O)C(=O)O)c2ccccc12 (stereo not drawn)
OUT: 1

IN: Then CCOC(=O)c1cn(CC)c(=O)n2c1nc1ccccc12 ?
OUT: -1

IN: Would you kindly repeat that for Br/C(=N\N=c1/nn[nH][nH]1)c1ccncc1 ?
OUT: -1

IN: What about CNc1nc2c(C)ccc3nc(N(C)C)[nH]c3c-2n1 ?
OUT: -1

IN: Okay, and COc1ccc2c3c([nH]c2c1[N+](=O)[O-])C(C)=NCC3 ?
OUT: -1

IN: Moving on to the next molecule: O=C1CC(c2cccc(F)c2)Nc2cc3c(cc21)OCO3 (stereo not drawn)
OUT: -1

IN: Ok, now CC1=C(C(=O)NCc2ccccc2)C(c2ccc([N+](=O)[O-])cc2)C(C(=O)NCc2ccccc2)=C(C)N1
OUT: -1

IN: Please do the same for CC(NC1=NCCO1)c1ccccc1Cl (stereo not drawn) as well.
OUT: -1

IN: Lookup C/C(=N\N(c1ccccc1)c1ccccc1)c1c(O)cc(C)oc1=O
OUT: -1

IN: Input O=C1CC[N+]2=Cc3ccccc3O[B-]2(c2ccccc2)O1 (stereo not drawn)
OUT: -1

IN: // query: CCn1c(=O)c2c3ccc(OC(C)=O)cc3[nH]c2c2ccc(OC(C)=O)cc21
OUT: -1

IN: Can you check C/C(=N\NC(=S)NC(C)(C)C)c1nc2cccnc2[nH]1 next?
OUT: 1

IN: Would you kindly repeat that for CNc1ncnc2c1cnn2COCC(O)CO (stereo not drawn) ?
OUT: -1

IN: Continue with COC(=O)/C(=N\Nc1nnc(C)n1N)C(C#N)c1ccc(Cl)cc1 (stereo not drawn)
OUT: -1

IN: O=C(Nc1cc2c(=O)[nH]c3ccccc3c2oc1=O)c1cnccn1 , same question.
OUT: -1

IN: And CCOC(=O)C1=C(OC(OCC)C(CC)[Se]c2ccccc2)CCC1 (stereo not drawn) ?
OUT: -1

IN: Moving on to COC(=O)CNC(=O)c1cc(C)cc2c1Oc1c(cc(C)cc1C(=O)NCC(=O)OC)S2
OUT: -1

IN: Thanks! And CC(=O)NC(c1nc2cc(C)c(C)cc2[nH]1)c1nc2cc(C)c(C)cc2[nH]1 ?
OUT: -1

IN: Next molecule: CC1(C)COC(c2cccnc2/C=N/O)=N1
OUT: -1

IN: Now give it for COc1cc2ccc3c4ccccc4cnc3c2cc1OC too.
OUT: -1

IN: Consider next the molecule COC(=O)c1ccc2c(c1)CC1(C2)Cc2cc3c(c(C(=O)OC)c2C1)CCCC3 (stereo not drawn) in the same way.
OUT: -1

====

System: EKVX
Assay: NCI tumour cell line growth inhibition, 48 h
Calls of active or inactive are those of the source. No stated cut-off is given here; in the data, active = GI50 up to about 1.1 µM and inactive = higher.
For each record, write down the corresponding GI50.

IN: Name the reported GI50 value associated with the molecule O=C(O)[C@@H]1OCCOCCO[C@@H](C(=O)O)[C@H](C(=O)O)OCCOCCO[C@H]1C(=O)O
OUT: > 100 µM (inactive)

IN: Further, for CCOC(=O)NC(=O)c1cn(C2OC(COC(=O)CCCCCCCCC(=O)OCC3OC(n4cc(C(=O)NC(=O)OCC)c(=O)[nH]c4=O)C(O)C3O)C(O)C2O)c(=O)[nH]c1=O (stereo unspecified) ?
OUT: > 100 µM (inactive)

IN: Next: CCOC(=O)c1c(SCCN2CCCC2)n(-c2ccccc2)c(=S)n(-c2ccccc2)c1=O
OUT: 13.9 µM (inactive)

IN: Now the same for CCO/C=N/NC(=O)CSc1nc2ccc(I)cc2c(=O)n1Cc1ccccc1
OUT: 22.9 µM (inactive)

IN: What do you have for CCNc1nc(N)c(C(=O)c2cccs2)s1 ?
OUT: 26.2 µM (inactive)

IN: Now give it for Cc1cnc2sn(-c3ccc([N+](=O)[O-])cc3)c(=O)c2c1 too.
OUT: 74.1 µM (inactive)

IN: What about this molecule? OCCSCCCSCCO
OUT: > 100 µM (inactive)

IN: Next entry: Nc1nc(Cl)cc(NCC2(CO)CC(OCc3ccccc3)C2)n1 (stereo unspecified)
OUT: 7.82 µM (inactive)

IN: Now the same for N#C/C(=C\NC(=S)Nc1ccc(S(=O)(=O)Nc2ccccn2)cc1)C(N)=O
OUT: > 100 µM (inactive)

IN: Follow-up entry: N/N=C1\C(=O)N(Cc2ccccc2)C(=O)C1C(=O)NCc1ccccc1 (stereo unspecified)
OUT: > 100 µM (inactive)

IN: Ok, now O=C1CC[C@H]2CNC(=O)C[C@H]2C1
OUT: > 100 µM (inactive)

IN: Same again, this time with CSc1nc(SC)c2cnn(CC3CO3)c2n1 (stereo unspecified)
OUT: 29.3 µM (inactive)

IN: Request: Nc1ccc2nc(N)n[n+]([O-])c2c1
OUT: > 100 µM (inactive)

IN: // query: CCOC(=O)CCC(NC(=O)c1ccc(NC(OC)c2nc3cc(C(F)(F)F)ccc3nc2-c2ccccc2)cc1)C(=O)OCC (stereo unspecified)
OUT: 18 µM (inactive)

IN: Another molecule to look at: Cc1ccc(Cl)c2c(=O)c3ccc(N)cc3sc12
OUT: 5.55 µM (inactive)

IN: Here is the next molecule: CCOC(=O)CSc1nc(-c2ccc(Cl)cc2)c(C#N)c(=O)[nH]1
OUT: > 100 µM (inactive)

IN: Another molecule to look at: C/C(=N\NC(N)=S)c1ccccn1.OB(O)c1ccccc1
OUT: 4.69 µM (inactive)

IN: Also, CC1=CCC[C@H]2[C@](C)(CC3=CC(=O)C(Sc4ccccc4)=CC3=O)[C@@H](C)CC[C@]12C please.
OUT: 20.2 µM (inactive)

IN: Now this one: O=C(/C=C/c1ccc(-c2ccccc2)cc1)c1ccccc1
OUT: 23.3 µM (inactive)

IN: Also check O=C1CCCc2cc3c(cc21)CC1(C3)Cc2cc3c(cc2C1)C(=O)CCC3
OUT: 5.48 µM (inactive)

IN: // same read-out, input: O=C1c2ccccc2C(=O)c2c1ccc1c2OCO1
OUT: > 100 µM (inactive)

IN: Then this molecule: CC1=CC2(O)OC3(CC2=C(C)C)C(C)CCC13 (stereo unspecified)
OUT: > 100 µM (inactive)

IN: Request: CCCCCCCCOC(=O)C12Oc3ccc(-c4ccc5c(c4O)C(=O)C4=C(O)CC(C)C(O)C4(C(=O)OCCCCCCCC)O5)c(O)c3C(=O)C1=C(O)CC(C)C2O (stereo unspecified)
OUT: 28.5 µM (inactive)

IN: Cool, now Cc1ccc(C)n1-n1c(-c2ccccc2)n[nH]c1=O
OUT: > 100 µM (inactive)

IN: Consider next the molecule CCCCCCCCCCCC(=O)OCC1OC(n2cc(F)c(=O)[nH]c2=O)C(NC(=O)OCc2ccccc2)C(O)C1O (stereo unspecified) in the same way.
OUT: 30.5 µM (inactive)

IN: Now the same for COCC(=O)CP(=O)(OC)OC
OUT: > 100 µM (inactive)

IN: Okay, and COc1ccc(N2C(=O)C3c4[nH]c5ccc(OCc6ccccc6)cc5c4C4CCC(c5ccccc5)CC4C3C2=O)cc1 (stereo unspecified) ?
OUT: 19.6 µM (inactive)

IN: Input COC(=O)c1c(C)cccc1C1CN=NC12Cc1ccc(C)c(C)c1C2=O (stereo unspecified)
OUT: 12.2 µM (inactive)

IN: What about this molecule? CC(C)(C)NCc1cc(Nc2ccnc3cc(Cl)ccc23)cc(-c2ccc(Cl)cc2)c1O
OUT: 3.72 µM (inactive)

IN: Also need CCOC(=O)/C=C(/OCC)[C@@H]1C(C(=O)c2ccc(Cl)cc2)[C@H]1/C(=C\C(=O)OCC)OCC (stereo partly specified) , thanks.
OUT: > 100 µM (inactive)

IN: Subsequent entry: N#CC(C(=O)C(N)=O)c1ccccc1Cl (stereo unspecified)
OUT: > 100 µM (inactive)

IN: Please give the result for S=C1/C(=N/c2ccccc2)N(c2ccccc2)/C(=N\c2cccc[n+]2Cc2ccccc2)N1c1ccccc1 too.
OUT: 19.7 µM (inactive)

IN: Here is the next molecule: O=[N+]([O-])c1cccc([N+](=O)[O-])c1Cl
OUT: 20.3 µM (inactive)

IN: Thanks! And Cc1ccc(-c2c(C#N)c(-c3ccccc3)n(NS(=O)(=O)c3ccc(C)cc3)c(=O)c2C#N)cc1 ?
OUT: 89.9 µM (inactive)

IN: Cool, now CCC1C(c2cccc(OC)c2O)c2cc3c(cc2OC1N1CCCC1)OCO3 (stereo unspecified)
OUT: 22.8 µM (inactive)

IN: Another molecule to look at: CCOC(=O)N1CCN(c2ccc3ccc(N)nc3n2)CC1
OUT: > 100 µM (inactive)

IN: Would you mind doing FC(F)(F)c1nc2ccc(SSc3ccc4nc(C(F)(F)F)[nH]c4c3)cc2[nH]1 as well?
OUT: > 10 µM (inactive)

IN: Now the same for C/C(=N\Nc1ccc([N+](=O)[O-])cc1[N+](=O)[O-])c1ccc2ccccc2n1
OUT: > 100 µM (inactive)

IN: Please give the result for CC(C)(C)C1=Cc2cc3cc(C(C)(C)C)[nH]c(=O)c3cc2S(=O)(=O)N1 too.
OUT: 17.3 µM (inactive)

IN: What do you have for O=C(O)c1ccccc1CC1Cc2ccccc2C1 ?
OUT: > 100 µM (inactive)

IN: Repeat for the following molecule: O=C1c2cc3ccccc3cc2C2(c3ccc(Cl)cc3)NCCN12 (stereo unspecified)
OUT: 26.5 µM (inactive)
